System: Leucine-rich repeat serine/threonine-protein kinase 2 (Homo sapiens), Q5S007 [G2019S]
Sequence (Q5S007 whole entry G2019S): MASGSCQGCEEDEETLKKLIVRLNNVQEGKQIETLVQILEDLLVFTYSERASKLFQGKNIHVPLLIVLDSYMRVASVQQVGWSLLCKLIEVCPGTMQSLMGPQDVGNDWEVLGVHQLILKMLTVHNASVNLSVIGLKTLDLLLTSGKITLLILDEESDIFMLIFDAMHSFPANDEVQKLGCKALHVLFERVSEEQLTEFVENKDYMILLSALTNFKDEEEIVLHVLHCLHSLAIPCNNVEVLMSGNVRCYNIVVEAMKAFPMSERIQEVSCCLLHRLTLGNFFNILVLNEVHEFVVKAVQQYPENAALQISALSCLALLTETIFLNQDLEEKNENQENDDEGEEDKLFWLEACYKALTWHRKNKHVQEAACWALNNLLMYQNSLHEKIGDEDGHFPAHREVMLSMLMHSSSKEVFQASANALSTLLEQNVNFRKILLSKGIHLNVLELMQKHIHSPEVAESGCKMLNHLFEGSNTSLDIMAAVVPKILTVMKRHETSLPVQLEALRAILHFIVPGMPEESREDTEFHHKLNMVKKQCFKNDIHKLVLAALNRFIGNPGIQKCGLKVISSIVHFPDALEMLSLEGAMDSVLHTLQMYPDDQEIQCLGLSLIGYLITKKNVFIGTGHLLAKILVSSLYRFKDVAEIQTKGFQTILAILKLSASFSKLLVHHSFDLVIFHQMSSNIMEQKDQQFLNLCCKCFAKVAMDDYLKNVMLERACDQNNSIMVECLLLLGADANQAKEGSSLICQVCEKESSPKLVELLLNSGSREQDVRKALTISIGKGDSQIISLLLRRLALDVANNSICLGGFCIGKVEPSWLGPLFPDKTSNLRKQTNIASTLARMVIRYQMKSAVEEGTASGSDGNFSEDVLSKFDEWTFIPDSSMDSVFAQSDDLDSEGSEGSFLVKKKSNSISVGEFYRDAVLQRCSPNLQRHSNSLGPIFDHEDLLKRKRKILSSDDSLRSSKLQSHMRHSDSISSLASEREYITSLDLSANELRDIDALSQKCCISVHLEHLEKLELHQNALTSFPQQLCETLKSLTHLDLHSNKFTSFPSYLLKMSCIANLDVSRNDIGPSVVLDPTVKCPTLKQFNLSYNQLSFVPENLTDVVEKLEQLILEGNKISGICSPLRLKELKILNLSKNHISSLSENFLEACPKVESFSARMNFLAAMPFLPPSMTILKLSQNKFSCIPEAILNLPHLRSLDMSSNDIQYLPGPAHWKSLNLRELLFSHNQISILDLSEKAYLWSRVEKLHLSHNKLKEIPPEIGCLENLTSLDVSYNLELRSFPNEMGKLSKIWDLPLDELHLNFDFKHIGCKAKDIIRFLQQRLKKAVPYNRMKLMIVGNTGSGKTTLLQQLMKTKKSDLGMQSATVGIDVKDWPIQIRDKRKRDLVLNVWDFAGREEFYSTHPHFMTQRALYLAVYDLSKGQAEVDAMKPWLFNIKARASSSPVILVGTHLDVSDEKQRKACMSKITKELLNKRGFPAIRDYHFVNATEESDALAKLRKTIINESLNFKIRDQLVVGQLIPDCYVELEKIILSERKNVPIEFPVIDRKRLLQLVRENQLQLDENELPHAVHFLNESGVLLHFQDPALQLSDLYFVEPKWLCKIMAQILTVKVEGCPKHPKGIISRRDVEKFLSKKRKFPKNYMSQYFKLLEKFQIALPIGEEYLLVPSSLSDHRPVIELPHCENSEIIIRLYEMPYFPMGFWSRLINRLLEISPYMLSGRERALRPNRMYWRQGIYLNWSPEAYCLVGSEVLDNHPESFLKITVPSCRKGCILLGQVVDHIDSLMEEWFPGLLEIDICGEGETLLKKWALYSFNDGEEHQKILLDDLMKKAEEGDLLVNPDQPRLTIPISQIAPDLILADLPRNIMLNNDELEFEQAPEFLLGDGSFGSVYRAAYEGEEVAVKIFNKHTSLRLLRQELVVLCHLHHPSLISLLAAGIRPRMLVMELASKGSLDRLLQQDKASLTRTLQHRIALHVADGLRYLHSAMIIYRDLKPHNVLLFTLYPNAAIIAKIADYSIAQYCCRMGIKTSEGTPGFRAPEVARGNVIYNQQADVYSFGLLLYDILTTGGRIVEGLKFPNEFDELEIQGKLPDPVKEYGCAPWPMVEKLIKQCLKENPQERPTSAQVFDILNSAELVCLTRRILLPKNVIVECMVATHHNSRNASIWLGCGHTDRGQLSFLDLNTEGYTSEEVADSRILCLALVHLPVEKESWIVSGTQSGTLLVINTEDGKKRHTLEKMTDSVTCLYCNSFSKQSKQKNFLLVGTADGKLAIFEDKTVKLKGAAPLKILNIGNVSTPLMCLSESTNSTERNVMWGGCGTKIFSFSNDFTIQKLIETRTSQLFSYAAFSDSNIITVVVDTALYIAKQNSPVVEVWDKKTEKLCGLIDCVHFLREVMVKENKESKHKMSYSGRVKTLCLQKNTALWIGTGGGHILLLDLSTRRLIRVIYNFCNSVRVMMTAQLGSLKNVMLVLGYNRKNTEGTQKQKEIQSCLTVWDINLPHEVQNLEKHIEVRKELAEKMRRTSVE
Conditions: at 0.1 µM
assay_metric: inhibition (%)

[[record]]
smiles_notation = "COc1ccc(Nc2ncc(-c3ccccc3)o2)cc1OC"
target_desc = "Leucine-rich repeat serine/threonine-protein kinase 2 (Homo sapiens), Q5S007 [G2019S]"
measurement_unit = "%"
recorded_value = 3.5

[[record]]
smiles_notation = "COc1ccc(-c2nn3ncccc3c2-c2ccnc(Nc3ccc(F)c(F)c3)n2)cc1"
target_desc = "Leucine-rich repeat serine/threonine-protein kinase 2 (Homo sapiens), Q5S007 [G2019S]"
measurement_unit = "%"
recorded_value = 6.22

[[record]]
smiles_notation = "CCCNc1cccc(-n2ncc3c(N/N=C/c4ccncc4)ncnc32)c1"
target_desc = "Leucine-rich repeat serine/threonine-protein kinase 2 (Homo sapiens), Q5S007 [G2019S]"
measurement_unit = "%"
recorded_value = 5.55

[[record]]
smiles_notation = "O=C(Nc1n[nH]c2nnc(-c3cccnc3)cc12)C1CC1"
target_desc = "Leucine-rich repeat serine/threonine-protein kinase 2 (Homo sapiens), Q5S007 [G2019S]"
measurement_unit = "%"
recorded_value = 2.42

[[record]]
smiles_notation = "NS(=O)(=O)c1cccc(N/C=C2\\C(=O)Nc3ccccc32)c1"
target_desc = "Leucine-rich repeat serine/threonine-protein kinase 2 (Homo sapiens), Q5S007 [G2019S]"
measurement_unit = "%"
recorded_value = 6.57

[[record]]
smiles_notation = "Cc1c2ccc(N(C)c3ccnc(Nc4cccc(S(N)(=O)=O)c4)n3)cc2nn1C"
target_desc = "Leucine-rich repeat serine/threonine-protein kinase 2 (Homo sapiens), Q5S007 [G2019S]"
measurement_unit = "%"
recorded_value = 1.58

[[record]]
smiles_notation = "O=C(O[C@H]1CN[C@H](C#Cc2cc3ncnc(Nc4ccc(OCc5cccc(F)c5)c(Cl)c4)c3s2)C1)N1CCOCC1"
target_desc = "Leucine-rich repeat serine/threonine-protein kinase 2 (Homo sapiens), Q5S007 [G2019S]"
measurement_unit = "%"
recorded_value = 4.61

[[record]]
smiles_notation = "CNC(=O)c1ncccc1Nc1nc(Nc2cc3c(cc2OC)CCCN3C(=O)CN(C)C)nc2[nH]ccc12"
target_desc = "Leucine-rich repeat serine/threonine-protein kinase 2 (Homo sapiens), Q5S007 [G2019S]"
measurement_unit = "%"
recorded_value = 65.3

[[record]]
smiles_notation = "CC(C)c1ccc(-c2cc(-c3c[nH]nc3-c3ccccn3)ccn2)cc1"
target_desc = "Leucine-rich repeat serine/threonine-protein kinase 2 (Homo sapiens), Q5S007 [G2019S]"
measurement_unit = "%"
recorded_value = 1.2

[[record]]
smiles_notation = "COc1cccc(-n2ncc3c(N/N=C/c4ccc(C(=O)NCCN(C)C)cc4)ncnc32)c1"
target_desc = "Leucine-rich repeat serine/threonine-protein kinase 2 (Homo sapiens), Q5S007 [G2019S]"
measurement_unit = "%"
recorded_value = 12.5


Reference source: ChEMBL document CHEMBL1961873
